Kindly supply the reported Dose values for the records listed here.
Species: Rattus norvegicus
test method notes: Dose prevented implantation in two out of 3 rats
Format: functional

Exam item: Param item = `CCC1=C(c2ccccc2)c2ccc(OCCN(C)C)cc2Sc2ccccc21` ; retrieve measured Dose.
Marked response: ~1 mg/kg

Exam item: For the compound CCC1=C(c2ccc(O)cc2)c2ccc(OCC(O)CO)cc2Oc2ccccc21 (centres undefined) , what Dose is on record?
Marked response: 10 mg/kg

Exam item: State the recorded Dose for this entry: CCC1=C(c2ccccc2)c2ccc(OCC(O)CO)cc2Sc2ccccc21 (centres undefined)
Marked response: ~25 mg/kg

Exam item: What value of Dose has been reported for the following compound? `C=CCOc1ccc2c(c1)SCc1ccccc1/C(CC)=C\2c1ccc(O)cc1`
Marked response: ~10 mg/kg

Data origin, for the record: ChEMBL document CHEMBL1122478
